B1: KLHL12 (parent)
chain: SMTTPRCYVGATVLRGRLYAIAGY

- Variants of: B1
- experiment: protein stability index of a GFP-peptide fusion (GPS, HEK-293T) (PSI 1-6); higher = more stable;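 note: lentivirally expressed fusions sorted by FACS into six bins by GFP to DsRed ratio, PSI derived from sequencing read proportions per bin multiplied by bin number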
- measurement.parameters: c terminus: a fixed tail appended
outcome.measure: protein stability index
// response body must contain only the number

// protein stability index lookup, variant = R6D , result: 2.56

The reported protein stability index of the variant Y19D was 1.99

Entry L14I ; protein stability index = 1.99

Sample A22K ; protein stability index observed: 1.52

Summary for this variant, L14A : protein stability index is 1.79

The reported value for G10A in terms of protein stability index is 1.29

Recorded protein stability index (variant Y24K ): 2.17

Per the records, this variant ( Y8M ) has protein stability index equal to 1.57

The variant identified as L14S registered its protein stability index at 1.9

Quick note, protein stability index for G23T landed at 2.54

// protein stability index value for A22C : 3.97

Short answer for R6K : protein stability index was 2.04

protein stability index reading for R17I : 3.46

Per the record, R15I has protein stability index of 2.18

Per the records, this variant ( A20Q ) has protein stability index equal to 2.45

Lab book: protein stability index of G23M noted as 2.83

For Y24E the variant record lists protein stability index as 2.33

// protein stability index value for V9H : 2.62

protein stability index recorded for this variant, M2E , is 1.68

get_value(item= T3Q , readout=protein stability index) returns 2.67

Lab note: measured protein stability index of G23S was 2.08

Short answer for T3S : protein stability index was 2.31

In plain terms, T4A has a documented protein stability index of 1

Field protein stability index (entry V13R ) reads 1.74

Reported protein stability index for T3F was 1.62

Note to self: protein stability index recorded for R17Y was 2.26

Looking up Y24G , I see its protein stability index listed as 2.13

// protein stability index lookup, variant = T12L , result: 2.77

The reported protein stability index of the variant Y19L was 2.15

Value of protein stability index reported for the variant T12K is 2.48

protein stability index for R15E is 2.11

// protein stability index lookup, variant = A20P , result: 2.26

Measured protein stability index, L14Q : 2.76

Note to self: protein stability index recorded for L14D was 1.58

Please fill in: protein stability index reported for V9N = 2.26

L18Q yielded protein stability index of 1.81

response.value for L18G (field: protein stability index) = 1.7

Per the record, A20C has protein stability index of 2.26

Per the records, this variant ( G10M ) has protein stability index equal to 2.75

Form: variant = R17P ; protein stability index = 2.42

Please fill in: protein stability index reported for G10S = 1.02

Short answer for I21D : protein stability index was 1.46

Record summary for A22P : reported protein stability index = 2.08

variant Y8P , protein stability index observed: 1.71

Measured protein stability index, L14R : 1.99

Reported protein stability index of M2P : 1.33
